Listed here are compounds together with their documented pIC50.
# System: A549
# assay.overview: Cytotoxicity against human A549 cells assessed as cell growth inhibition incubated for 48 hrs by MTT assay
# Assay type: functional, cell-based
# condition.parameters: A549, 48 h
pIC50: −log10 of the molar value.
value.type: pIC50

{"compound": "COc1ccc(C/N=C2\\NC(=O)/C(=C3\\CCNC(=O)c4[nH]ccc43)S2)cc1", "censor.symbol": "=", "measured.value": 4.74}
{"compound": "O=C1N/C(=N\\Cc2ccccc2Cl)S/C1=C1/CCNC(=O)c2[nH]ccc21", "censor.symbol": "<", "measured.value": 4.00}
{"compound": "COc1ccc(CC/N=C2\\NC(=O)/C(=C3\\CCNC(=O)c4[nH]c5ccccc5c43)S2)cc1", "censor.symbol": "=", "measured.value": 4.69}
{"compound": "COc1ccc(C/N=C2\\NC(=O)/C(=C3\\CCNC(=O)c4[nH]c5ccccc5c43)S2)cc1", "censor.symbol": "=", "measured.value": 5.43}
{"compound": "O=C1N/C(=N\\Cc2ccccc2)S/C1=C1/CCNC(=O)c2[nH]ccc21", "censor.symbol": "=", "measured.value": 4.57}
{"compound": "O=C1N/C(=N\\Cc2ccc3c(c2)OCO3)S/C1=C1/CCNC(=O)c2[nH]c3ccccc3c21", "censor.symbol": "<", "measured.value": 4.30}
{"compound": "O=C1N/C(=N\\Cc2ccc(Cl)cc2)S/C1=C1/CCNC(=O)c2[nH]ccc21", "censor.symbol": "<", "measured.value": 4.00}
{"compound": "O=C1N/C(=N\\Cc2ccccc2)S/C1=C1/CCNC(=O)c2[nH]c3ccccc3c21", "censor.symbol": "=", "measured.value": 4.32}
{"compound": "O=C1N/C(=N\\Cc2ccc(F)cc2)S/C1=C1/CCNC(=O)c2[nH]ccc21", "censor.symbol": "=", "measured.value": 4.65}
{"compound": "O=C1N/C(=N\\Cc2cccc(Cl)c2)S/C1=C1/CCNC(=O)c2[nH]c3ccccc3c21", "censor.symbol": "=", "measured.value": 4.47}
{"compound": "CC[C@@]1(O)C(=O)OCc2c1cc1n(c2=O)Cc2cc3ccccc3nc2-1 [CAMPTOTHECIN]", "censor.symbol": "=", "measured.value": 6.33}
{"compound": "O=C1N/C(=N\\CCc2ccc(F)cc2)S/C1=C1/CCNC(=O)c2[nH]c3ccccc3c21", "censor.symbol": "<", "measured.value": 4.30}
{"compound": "COc1ccc(CC/N=C2\\NC(=O)/C(=C3\\CCNC(=O)c4[nH]ccc43)S2)cc1", "censor.symbol": "=", "measured.value": 4.80}
{"compound": "O=C1N/C(=N\\CCc2ccccc2)S/C1=C1/CCNC(=O)c2[nH]ccc21", "censor.symbol": "=", "measured.value": 4.71}
{"compound": "CC(C)(C)c1ccc(C/N=C2\\NC(=O)/C(=C3\\CCNC(=O)c4[nH]ccc43)S2)cc1", "censor.symbol": "=", "measured.value": 4.36}
{"compound": "O=C1N/C(=N\\Cc2cccc(Cl)c2)S/C1=C1/CCNC(=O)c2[nH]ccc21", "censor.symbol": "=", "measured.value": 4.45}
{"compound": "Cc1ccc(C/N=C2\\NC(=O)/C(=C3\\CCNC(=O)c4[nH]c5ccccc5c43)S2)cc1", "censor.symbol": "=", "measured.value": 5.91}
{"compound": "O=C1N/C(=N\\Cc2ccc(F)cc2)S/C1=C1/CCNC(=O)c2[nH]c3ccccc3c21", "censor.symbol": "=", "measured.value": 4.44}
{"compound": "COc1ccc(C/N=C2\\NC(=O)/C(=C3\\CCNC(=O)c4[nH]c5ccccc5c43)S2)cc1OC", "censor.symbol": "=", "measured.value": 4.52}
